Sourced from the NIST ThermoML archive (doi:10.1021/je9004992)

Can you tell me molar heat capacity at constant pressure for the items I'm about to list?
run_description: molar heat capacity at constant pressure
test_conditions: 303.15 K; 12000 kPa; Liquid; Small sample (50 mg) DSC
Give just the number in J/K/mol; leave the unit off.

Query: For CCCCCCn1cc[n+](C)c1.F[B-](F)(F)F [1-hexyl-3-methylimidazolium tetrafluoroborate] , write its molar heat capacity at constant pressure.
Reply: 432.58

Query: For CCn1cc[n+](C)c1.F[B-](F)(F)F [1-ethyl-3-methylimidazolium tetrafluoroborate] , write its molar heat capacity at constant pressure.
Reply: 306.77

Query: For CCCCn1cc[n+](C)c1.F[B-](F)(F)F [1-butyl-3-methylimidazolium tetrafluoroborate] , write its molar heat capacity at constant pressure.
Reply: 368.39

Query: For CCCCCCCC[n+]1ccn(C)c1.F[B-](F)(F)F [1-methyl-3-octylimidazolium tetrafluoroborate] , write its molar heat capacity at constant pressure.
Reply: 503.48

* * *

Can you tell me molar heat capacity at constant pressure for the items I'm about to list?
run_description: molar heat capacity at constant pressure
test_conditions: 293.15 K; 14000 kPa; Liquid; Small sample (50 mg) DSC
Give just the number in J/K/mol; leave the unit off.

Query: For CCCCn1cc[n+](C)c1.F[B-](F)(F)F [1-butyl-3-methylimidazolium tetrafluoroborate] , write its molar heat capacity at constant pressure.
Reply: 364.29

Query: For CCn1cc[n+](C)c1.F[B-](F)(F)F [1-ethyl-3-methylimidazolium tetrafluoroborate] , write its molar heat capacity at constant pressure.
Reply: 303.44

Query: For CCCCCCn1cc[n+](C)c1.F[B-](F)(F)F [1-hexyl-3-methylimidazolium tetrafluoroborate] , write its molar heat capacity at constant pressure.
Reply: 427.63

Query: For CCCCCCCC[n+]1ccn(C)c1.F[B-](F)(F)F [1-methyl-3-octylimidazolium tetrafluoroborate] , write its molar heat capacity at constant pressure.
Reply: 496.77

* * *

run_description: molar heat capacity at constant pressure
test_conditions: 283.15 K; 40000 kPa; Liquid; Small sample (50 mg) DSC
property_label: molar heat capacity at constant pressure (J/K/mol)
Give just the number in J/K/mol; leave the unit off.

Query: For CCCCn1cc[n+](C)c1.F[B-](F)(F)F [1-butyl-3-methylimidazolium tetrafluoroborate] , write its molar heat capacity at constant pressure.
Reply: 360.82

Query: For CCCCCCCC[n+]1ccn(C)c1.F[B-](F)(F)F [1-methyl-3-octylimidazolium tetrafluoroborate] , write its molar heat capacity at constant pressure.
Reply: 489.26

Query: For CCCCCCn1cc[n+](C)c1.F[B-](F)(F)F [1-hexyl-3-methylimidazolium tetrafluoroborate] , write its molar heat capacity at constant pressure.
Reply: 423.63

Query: For CCn1cc[n+](C)c1.F[B-](F)(F)F [1-ethyl-3-methylimidazolium tetrafluoroborate] , write its molar heat capacity at constant pressure.
Reply: 300.73

* * *

Can you tell me molar heat capacity at constant pressure for the items I'm about to list?
run_description: molar heat capacity at constant pressure
test_conditions: 293.15 K; 4000 kPa; Liquid; Small sample (50 mg) DSC
Give just the number in J/K/mol; leave the unit off.

Query: For CCn1cc[n+](C)c1.F[B-](F)(F)F [1-ethyl-3-methylimidazolium tetrafluoroborate] , write its molar heat capacity at constant pressure.
Reply: 303.29

Query: For CCCCCCCC[n+]1ccn(C)c1.F[B-](F)(F)F [1-methyl-3-octylimidazolium tetrafluoroborate] , write its molar heat capacity at constant pressure.
Reply: 496.79

Query: For CCCCCCn1cc[n+](C)c1.F[B-](F)(F)F [1-hexyl-3-methylimidazolium tetrafluoroborate] , write its molar heat capacity at constant pressure.
Reply: 427.42

Query: For CCCCn1cc[n+](C)c1.F[B-](F)(F)F [1-butyl-3-methylimidazolium tetrafluoroborate] , write its molar heat capacity at constant pressure.
Reply: 364.19
